# System: SNB-75 CNS
# measurement_notes: NCI tumour cell line growth inhibition, 48 h; in the data active = GI50 below about 0.43 µM; inactive = the rest
Labels: class 1 (active), class 0 (inactive)

INSERT INTO assay_data (compound, group_label) VALUES
  ('COc1cc(OC)c(/C=C/c2c3ccccc3cc[n+]2C)c(OC)c1', 'class 0'),
  ('CC(=O)Oc1ccccc1C(=O)Nc1ncc([N+](=O)[O-])s1', 'class 0'),
  ('N#Cc1c(N/N=C/c2ccc(Cl)cc2Cl)nc(N)nc1N1CCCC1', 'class 0'),
  ('Cc1cc(C)c(/C=C2\C(=O)Nc3ccc(NC(=O)CCCCCCC(=O)NO)cc32)[nH]1', 'class 1'),
  ('COc1ccc(O)c(C(=O)c2ccc(C(=O)N[C@H]3CCCNC[C@@H]3NC(=O)c3ccncc3)cc2)c1F', 'class 1'),
  ('COCC1(CO)C(=O)C2CCN1CC2 (stereo not given)', 'class 0'),
  ('COc1cc(C(=O)N2CCN(c3ncccn3)CC2)c(N)cc1OCc1ccccc1', 'class 0'),
  ('CN(CCO)c1ccc(N2Cc3ccccc3OC3=C2C(=O)c2c(O)ccc(O)c2C3=O)cn1', 'class 1'),
  ('COc1cc2c3c(n(CCCOC(=O)C(F)(F)F)c(=O)c2cc1OC)-c1cc2c(cc1C3=O)OCO2', 'class 1'),
  ('C#COc1cccc(Nc2c(C#N)cnc3ncc(NC(=O)CCl)cc23)c1', 'class 0');
